assay_protocol: Genotoxicity in uvrA-deficient Escherichia coli assessed as survival at 100 ug/ml after 6 hrs by DNA-repair test
Assay type: toxicity, organism-based
condition_label: read-out: Survival
Each item that follows carries a reported viability at 6 h, 100 ug/ml.
State the answer as a number, implicitly in %.

compound	viability at 6 h, 100 ug/ml, %
CCCC[P+](CCCC)(CCCC)Cc1nc(C)c2c(c1C[P+](CCCC)(CCCC)CCCC)COC(C)(C)O2.[Cl-].[Cl-]	66.1
Cc1nc(C[P+](c2ccccc2)(c2ccccc2)c2ccccc2)c(C[P+](c2ccccc2)(c2ccccc2)c2ccccc2)c2c1OC(C)(C)OC2.[Cl-].[Cl-]	68.9

Consider the record given below.
(Q) Using the record for CCCC1OCc2c(C[P+](c3ccccc3)(c3ccccc3)c3ccccc3)c(C[P+](c3ccccc3)(c3ccccc3)c3ccccc3)nc(C)c2O1.[Cl-].[Cl-] (stereo not drawn) , report its viability at 6 h, 100 ug/ml.
(A) 64.4
